Cited source for all entries: the supplement of paper PMC11417369

- System: PfAP2-HC AP2 domain (GST-tagged)
- experiment: gcPBM binding intensity (ln(normalized median fluorescence intensity)); higher = stronger DNA binding
The full ranking holds about 25,000 sequences; the median of “ln(normalized median fluorescence intensity)” is about 9.7, and the highest 2% start at about 11. What follows is part of a selection rich in the highest values, with near analogues and random picks from the rest.
Param threshold (10) applies to gcPBM binding intensity (ln); output label 1 when value >= threshold, label 0 when value < threshold.

# item sequence, assigned class
rows = [
    ("CACGCGCACGAACACACACACACACGCATATAAATA [CACACA_site7103]", "label 1"),
    ("TAAAAAATATAAACTGCACACACACTAATAAAGAAA [CACACA_site8119]", "label 1"),
    ("AAATAAAACAGACACACACACACATACACAAAAAAA [CACACA_site7753]", "label 1"),
    ("AAAAAAAACAGACACATACACACAAAAATGTTATAA [CACACA_site82]", "label 1"),
    ("AAATTTATGAACCTAGTGCAGAAATTAAAAAGATGA [GTGCAC_site9396]", "label 0"),
    ("ATCAACATTATGTTTAGTACTTAGTGAATTGTTAAT [XGTACX_site4913]", "label 0"),
    ("AAAAAAAACAGACACACACACAAATACATACACAAA [CACACA_site705]", "label 1"),
    ("TAATAAATCAAATGCACACACACAAAAAAAAAAAAA [CACACA_site161]", "label 1"),
    ("AATAAATATAAAAATGCACACACACTAATAAAAAAA [CACACA_site8201]", "label 1"),
    ("ATTGCATTTGTAGATAATACAATATGGATTGTTATA [CACACA_negctrl_site1749]", "label 0"),
    ("AAAAATATAAACTGCACACACACAAAAAAAGAAAAA [CACACA_site648]", "label 1"),
    ("TACATGAATAAACTTACACACACCCATGCATACATA [CACACA_site97]", "label 1"),
    ("TATAAATTAAAATCAGTGCATATTTTGAAAAACCTC", "label 0"),
    ("AAAAATATAAACTGCACACACAAAAAAAAAAGAGAA [CACACA_site1367]", "label 1"),
    ("GTTGTTATATAAAATTGTACATAAAAAACAAAATAT [XGTACX_site5313]", "label 0"),
]

====

- Tested on: PfAP2-HC AP2 domain (GST-tagged)
- experiment: gcPBM binding intensity (ln(normalized median fluorescence intensity)); higher = stronger DNA binding
Whole data set: some 25,000 sequences, median “ln(normalized median fluorescence intensity)” near 9.7, cut for the highest 2% near 11. This is one part of a sample in which the highest values are shown more often than they occur.
Attribute: gcPBM binding intensity (ln)
property name: gcPBM binding intensity (ln)

# item sequence, reported
rows = [
    ("TTATATATAGATCACACACACACACCGGTTTTAAAA [CACACA_site4220]", 11.2),
    ("AAATTATATACCACAGTGCAAAAGGCAGGTATACGT", 9.91),
    ("ATATAGATCAGACACACACACATGTTTTAAAACTAT [CACACA_site6186]", 10.9),
    ("AAGTTCAAAATAAATGGTACAGAAGTATATATATCA [XGTACX_site174]", 9.75),
    ("GTAATGAAACATTGCACACATATAATAATATAATAT [CACACA_site1422]", 9.84),
]

====

- Test system: PfAP2-HC AP2 domain (GST-tagged)
- experiment: gcPBM binding intensity (ln(normalized median fluorescence intensity)); higher = stronger DNA binding
Over roughly 25,000 sequences, “ln(normalized median fluorescence intensity)” has its median near 9.7; the highest 2% begin near 11. This excerpt belongs to a sample that is enriched for the highest values.
Param threshold (10) applies to gcPBM binding intensity (ln); output 1.0 when value >= threshold, 0.0 when value < threshold.

# item sequence, assigned class
records = [
    ("CATATACAGAAACACACACACACATAAATAAATATA [CACACA_site1343]", 1.0),
    ("TATACGCAGAAACACACACACATACACCCACATACA [CACACA_site1723]", 1.0),
    ("CATACACAGAAACACACACACATATATACATATATA [CACACA_site1094]", 1.0),
    ("CATACATAGAAACACACACACACACCCACCCACAAA [CACACA_site494]", 1.0),
    ("TACATACAGAAACACACACACACATATATATATATA [CACACA_site2919]", 1.0),
    ("ATATAACAGAAACACACACACATATATATATATTAT [CACACA_site4140]", 1.0),
    ("CAAATACAGAAACACACACACATATACATATATATA [CACACA_site3498]", 1.0),
    ("TATTTCGTAATTTAATAATATACAAGAAATATATAT [XGTACX_negctrl_site143]", 0.0),
    ("CCCCCCCACGGACACACACACATACATACCACATAT [CACACA_site5303]", 1.0),
    ("ATACATATTCTTATTTGTACTTATTATAAAATGGTC [XGTACX_site6584]", 0.0),
    ("TTAAACTTGAAACACACACACACACCGATATAAAAA [CACACA_site4578]", 1.0),
    ("ACTTGTAAGAAACACACACACACACCGATATATATA [CACACA_site4594]", 1.0),
]

====

Attribute: gcPBM binding intensity (ln)
- Tested on: PfAP2-HC AP2 domain (GST-tagged)
- experiment: gcPBM binding intensity (ln(normalized median fluorescence intensity)); higher = stronger DNA binding
Whole data set: some 25,000 sequences, median “ln(normalized median fluorescence intensity)” near 9.7, cut for the highest 2% near 11. Only a selection was taken, and the highest values are over-represented in it overall.
property name: gcPBM binding intensity (ln)

# item sequence, target or test system, reported
rows = [
    ("TAAAAAGGAAAACACACACACACATATATATATATA [CACACA_site3588]", "PfAP2-HC AP2 domain (GST-tagged)", 11.4),
    ("ATAAATATTGGGTGCACACACATAATATATATATAT [CACACA_site2272]", "PfAP2-HC AP2 domain (GST-tagged)", 10.2),
    ("AATATAAAAATGTTTACACACACACCCAAATATATT [CACACA_site2511]", "PfAP2-HC AP2 domain (GST-tagged)", 10.2),
    ("AAAAAAAAAAAAAAAAAAAAACACCCAAAAAAATAT [XGTACX_negctrl_site210]", "PfAP2-HC AP2 domain (GST-tagged)", 10.1),
    ("GATAACATAATATGTTGTACATAAAAATTTTTATCA [XGTACX_site1969]", "PfAP2-HC AP2 domain (GST-tagged)", 9.62),
    ("GGAATAATATAAAACACACACATAAATATAAATATA [CACACA_site3376]", "PfAP2-HC AP2 domain (GST-tagged)", 10.7),
    ("TTATGTAAAAAAAAAAAAAAAAAAAAAAAAAAAAAA [CACACA_negctrl_site984]", "PfAP2-HC AP2 domain (GST-tagged)", 9.05),
    ("AACAAAAAAACAAACACACACACACCCATATATATA [CACACA_site3652]", "PfAP2-HC AP2 domain (GST-tagged)", 10.6),
    ("ATATACATTAAATGAACACACATAAATAAATTACAT [CACACA_site2852]", "PfAP2-HC AP2 domain (GST-tagged)", 9.89),
    ("AAAGGATGTAATATAAACATATATATGTATATATAT [TGCATGCA_negctrl_site347]", "PfAP2-HC AP2 domain (GST-tagged)", 9.79),
    ("AACAGACAAAGACACACACACATACATACATACATA [CACACA_site6351]", "PfAP2-HC AP2 domain (GST-tagged)", 10.4),
    ("TATACACATATATAAACACACAAAAAAAAAAAAAAA [CACACA_site7041]", "PfAP2-HC AP2 domain (GST-tagged)", 9.57),
    ("CACACTTTATAATGTTGTACGATACATTATACCAAA [XGTACX_site941]", "PfAP2-HC AP2 domain (GST-tagged)", 9.67),
    ("AAAAAGAAAAAAAACACACACAAATATAAATAAATA [CACACA_site1183]", "PfAP2-HC AP2 domain (GST-tagged)", 10.2),
    ("TATATATATATTTATACACACACATATATTTATATA [CACACA_site8054]", "PfAP2-HC AP2 domain (GST-tagged)", 10.1),
    ("ACATATAAATATTGTGTGCACACACATAATATATAT", "PfAP2-HC AP2 domain (GST-tagged)", 11.3),
    ("TATACTCAGAAACACACACACACACCCAAAAAAAAA [CACACA_site4434]", "PfAP2-HC AP2 domain (GST-tagged)", 11.1),
    ("TATATACACATATATAAACACACAAAAAAAAAAAAA [CACACA_site8626]", "PfAP2-HC AP2 domain (GST-tagged)", 9.82),
    ("AGGAAAAAAGAAAAAACACACATAAATATATATATA [CACACA_site3085]", "PfAP2-HC AP2 domain (GST-tagged)", 9.74),
    ("AAAAAAAAAAAAAACACACACACACCCAAATATATA [CACACA_site1169]", "PfAP2-HC AP2 domain (GST-tagged)", 11.3),
    ("TTATATATATATGTATGTACTTATAACTTTTATTAG [XGTACX_site3190]", "PfAP2-HC AP2 domain (GST-tagged)", 9.6),
    ("AAAAAAAGAAAAAAAACACACACAAATATAAATAAA [CACACA_site8309]", "PfAP2-HC AP2 domain (GST-tagged)", 10.9),
    ("AATATAAAAATGTTTACACACACACCGAAATATATT [CACACA_site8800]", "PfAP2-HC AP2 domain (GST-tagged)", 11.2),
    ("ATATAAATATAGTGTGCACACACATAATATATATAT [CACACA_site8713]", "PfAP2-HC AP2 domain (GST-tagged)", 10.4),
    ("ATCGGTAATATTAACACACACATTTATTTATATTTA [CACACA_site6638]", "PfAP2-HC AP2 domain (GST-tagged)", 10.1),
    ("AAAAAAAAAAAAAAAACACACATATCTGTATTTATA [CACACA_site5760]", "PfAP2-HC AP2 domain (GST-tagged)", 9.75),
    ("TTTTTTTCTTTTCAAACACACAATTGGTATATATTA [CACACA_site3320]", "PfAP2-HC AP2 domain (GST-tagged)", 9.81),
    ("TTGTAGGTAAATATGTGTACGCATTATTATTCTTAA [XGTACX_site216]", "PfAP2-HC AP2 domain (GST-tagged)", 9.58),
    ("TATAACATAAAACACACACACATACATACACAAAAA [CACACA_site1804]", "PfAP2-HC AP2 domain (GST-tagged)", 11),
    ("TTATGTTGTAAATACACACATACATATACATACACA [CACACA_site733]", "PfAP2-HC AP2 domain (GST-tagged)", 9.91),
    ("TAAATATATAAATACACACACATACACAAAAAAAAA [CACACA_site5890]", "PfAP2-HC AP2 domain (GST-tagged)", 10.9),
    ("AAGAAAATTAACCCATGTACTTATGTAGATAGCAAG [XGTACX_site1049]", "PfAP2-HC AP2 domain (GST-tagged)", 9.87),
    ("AAATATAAAGTGCACACACACAAAAAAAGAAAAAAA [CACACA_site6452]", "PfAP2-HC AP2 domain (GST-tagged)", 10.2),
    ("CACAGACACGGACACACACACACAAAAAAAAAAAGA [CACACA_site4436]", "PfAP2-HC AP2 domain (GST-tagged)", 11.3),
    ("AAATAATTTACTTAATGTACATATATATATATATAT [XGTACX_site8594]", "PfAP2-HC AP2 domain (GST-tagged)", 9.78),
    ("CACACGCACGGACACACACACAAAAAAAAAAAGAAA [CACACA_site6378]", "PfAP2-HC AP2 domain (GST-tagged)", 10.3),
    ("AAAAAAAAAAAACACACACACACAAATATATAAAAA [CACACA_site1171]", "PfAP2-HC AP2 domain (GST-tagged)", 10.6),
    ("AAAACACCCAAACACACACACACATATATATATATA [CACACA_site9119]", "PfAP2-HC AP2 domain (GST-tagged)", 10.8),
]
